Origin of the recorded values: ChEMBL document CHEMBL4229531

Species: Homo sapiens
assay_name: Inhibition of recombinant full length tau 0N4R (unknown origin) aggregation expressed in Escherichia coli at 20 uM after 72 hrs by thioflavin S assay relative to control
measured_property: inhibition (%)
Please reply with the bare figure in % and do not write the unit itself.

Would you mind telling me what inhibition value was observed for O=C1/C(=C/c2ccc([N+](=O)[O-])cc2)CCc2nc3ccccc3cc21 ?
6.3

Try this molecule next: O=C1/C(=C/c2ccccc2)CCc2nc3ccccc3cc21
20.5

Try this molecule next: Nc1c2c(nc3ccccc13)CC/C(=C\c1cccc3ccccc13)C2=O
-6.7

Try this molecule next: Nc1c2c(nc3ccccc13)CC/C(=C\c1ccco1)C2=O
30.7

Try this molecule next: C[n+]1c2c(c(N)c3ccccc31)C(=O)/C(=C/c1cccc(F)c1)CC2.[I-]
86.3

Try this molecule next: C[n+]1c2c(c(N)c3ccccc31)C(=O)/C(=C/c1ccccc1)CC2.[I-]
71.2

Try this molecule next: C[n+]1c2c(c(N)c3ccccc31)C(=O)/C(=C/c1cccc3ccccc13)CC2.[I-]
102

Try this molecule next: O=C1/C(=C/c2ccccc2F)CCc2nc3ccccc3cc21
2.9

Try this molecule next: C[n+]1c2c(c(N)c3ccccc31)C(=O)/C(=C/c1cccc(Cl)c1)CC2.[I-]
98.3

Try this molecule next: COc1ccc(/C=C2\CCc3nc4ccccc4c(N)c3C2=O)cc1
43.4

Try this molecule next: Nc1c2c(nc3ccccc13)CC/C(=C\c1cccc(Cl)c1)C2=O
-3.1

Try this molecule next: C[n+]1c2c(c(N)c3ccccc31)C(=O)/C(=C/c1cccc([N+](=O)[O-])c1)CC2.[I-]
98.2

Try this molecule next: C[n+]1c2c(c(N)c3ccccc31)C(=O)/C(=C\c1cccc(Cl)c1)CC2.[I-]
15.4

Try this molecule next: C[n+]1c2c(c(N)c3ccccc31)C(=O)/C(=C\c1cccc3ccccc13)CC2.[I-]
79.2

Try this molecule next: C[n+]1c2c(c(N)c3ccccc31)C(=O)/C(=C\c1ccccc1)CC2.[I-]
7.2

Try this molecule next: Cc1c2c(nc3ccccc13)CC/C(=C\c1ccccc1)C2=O
15.7

Try this molecule next: Nc1c2c(nc3ccccc13)CC/C(=C\C=C\c1ccccc1)C2=O
-3.8

Try this molecule next: Nc1c2c(nc3ccccc13)CC/C(=C\c1cccc(F)c1)C2=O
4.9

Try this molecule next: Nc1c2c(nc3ccccc13)CC/C(=C\c1ccccc1)C2=O
18.7

Try this molecule next: CN(C)c1ccc2nc3ccc(=[N+](C)C)cc-3sc2c1
80.1

Try this molecule next: Nc1c2c(nc3ccccc13)CC/C(=C\c1ccccc1F)C2=O
25.3
